Test system: M14 melanoma
Test: NCI tumour cell line growth inhibition, 48 h
metric: TGI

Take a look at these entries with their results.
| compound | TGI |
| --- | --- |
| C[C@@H](Br)[C@@H]1CC[C@H]2c3[nH]c4ccccc4c3CCN2C1 | 44 µM |
| CC(C)[Si](CC1=CCCCC12C(=O)N(COCC[Si](C)(C)C)c1ccccc12)(C(C)C)C(C)C (configuration not stated) | > 100 µM |
| c1ccc2c(CCNC3=NCCO3)cccc2c1 | > 10 µM |
| Cc1cccc2c1CC1(Cc3c(C)cccc3C1=O)C2=O | > 100 µM |
| O=C1/C=C/[C@@H](O)[C@@H]2C[C@@H](O)C[C@H]2/C=C/CCCCO1 | > 100 µM |

Given the compound `CC12CCC(C)(c3cc(O)c(O)cc31)c1cc(O)c(O)cc12` , what is its reported TGI? 36 µM

Please give the measured TGI for this compound: `COc1ccc([C@H]2C=C(c3cc(F)c(Cl)cc3Cl)N=c3s/c(=C\c4ccc(-c5ccc(Cl)cc5Cl)o4)c(=O)n32)cc1` > 100 µM

State the recorded TGI for this entry: `COc1ccc2oc(=O)c(-c3nc4ccccc4s3)cc2c1` > 58.3 µM

Query (compound): OC1OC2COC(c3ccccc3)OC2C(O)C1O (configuration not stated) ; field requested: TGI > 100 µM

Need TGI of `O=c1c(-c2nc3ccccc3[nH]2)cc2ccccc2n1Cc1cn(Cc2ccc(F)cc2)nn1` , thanks. 0.39 µM

Sample `CC1(C)OC(=O)C(c2ccsc2)C(=O)O1` — what was its TGI? > 100 µM

Name the reported TGI value associated with the compound O=C(c1ccccc1)C(c1ccccc1)C1(O)C(=O)Nc2ccc(Br)cc21 (configuration not stated) > 100 µM

Entry `COC(=O)C1=CCS(=O)(=O)C1` has what TGI? > 100 µM

Please look up its TGI: `COc1cc2c(cc1OC)-c1c(c3ccc([N+](=O)[O-])cc3c(=O)n1CCCBr)C2=O` 26.7 µM

What value of TGI has been recorded for this entry: `Nc1[nH]nc2c1Cc1c(n(Cc3ccc(Cl)cc3)c3ccccc13)C(=O)N2` 26 µM

Using the record for CCN(CC)[C@@H]1c2cc3c(cc2C(c2cc(OC)c(O)c(OC)c2)C2C(=O)CO[C@@H]21)OCO3 (some centres not stated) , report its TGI. > 100 µM

Entry `O=C(O)Cc1ccc(-n2nnc3c(=O)[nH][nH]c(=O)c32)cc1` has what TGI? > 100 µM

Record request: TGI value, item COc1ccc(-c2c3c(n(C4OC(COC(C)=O)C(OC(C)=O)C(OC(C)=O)C4OC(C)=O)c(=S)c2C#N)CCCC3)cc1 (configuration not stated) > 100 µM

Quick one: TGI of COc1ccc(C(CC(=O)c2ccc(O)cc2)C(C(=O)c2ccc(O)cc2)C(c2ccc(OC)cc2)C2C(=O)NC(=S)NC2=O)cc1 (configuration not stated) ? 39.3 µM

Which TGI value is on record for `CCCCCCCCC[C@@H]1C[C@H](O)[C@H](Cc2ccccc2)N1C(=O)OC(C)(C)C` ? 38.4 µM

Entry under review: `COC(=O)c1cccc(COc2ccc([N+](=O)[O-])cc2Cl)c1` . Reported TGI? > 100 µM

// query TGI value for entry `O=c1cc(/C=C/c2ccccc2)c2ccc(O/C(=C\c3ccccc3)c3nc4ccccc4c(=O)o3)cc2o1` 50.1 µM

Which TGI is reported for this compound? CCN(CC)C(=O)CCNC(C)Cc1c[nH]c2ccccc12 (configuration not stated) > 100 µM

* * *

System: SK-MEL-2 melanoma
Experiment: NCI tumour cell line growth inhibition, 48 h
Listing of recorded TGI by entry.
Report only the number, with the unit µM understood.

Worked set:
| smiles notation | metric | result |
| --- | --- | --- |
| CCCCCCCCCCCC(=O)[O][Sn]([CH2]CCC)([CH2]CCC)[CH2]CCC | TGI | 0.13 |
| Cc1c(OCc2cccc3ccccc23)ccc2c(=O)cc(S)oc12 | TGI | 50.4 |

Consider the record given below.
For `Nc1[nH]nc2c1Cc1c(n(Cc3ccc(Cl)cc3)c3ccccc13)C(=O)N2` , what is its reported TGI? 34.3

* * *

Test system: A549 NSCLC
Experiment: NCI tumour cell line growth inhibition, 48 h
metric: TGI

Use the examples below as a reference point.
| compound | TGI |
| --- | --- |
| CCc1cc(Cc2cc(CC)cc(C(C)(C)C)c2O)c(O)c(C(C)(C)C)c1 | 13.2 µM |
| O=C1C2Cc3ccccc3CN2C(=O)N1CCN1CCOCC1 (centres undefined) | > 100 µM |
| O=C(/C=C/c1ccco1)c1cccc(Nc2nc(Nc3ccccc3)nc(Nc3ccccc3)n2)c1 | > 38.2 µM |
| c1ccc2c[n+](Cc3ccnc4ccccc34)ccc2c1 | > 100 µM |
| C=C(C)[C@H]1C=C[C@@H](OC(C)=O)[C@@]2(COC(C)=O)[C@H](OC(=O)CCC)[C@H]3[C@@H](OC(C)=O)[C@@H](C)C[C@]3(O)C(=O)[C@@](C)(OC(C)=O)[C@H]12 | > 100 µM |

Param item = `CNC(=S)c1nnsc1N` ; retrieve measured TGI. > 100 µM

// query TGI value for entry `COc1ccc2c(c1)[n+](=O)c(C(=O)C/C(=N\NC(=O)C[N+](C)(C)C)C(=O)Nc1cc(Cl)ccc1Cl)c(C)n2O` > 100 µM

Look at this compound and give its reported TGI. `COC(=O)/C=C/c1cc(OC)c2c(c1)[C@@H](C(=O)OC)[C@H](c1ccc(OC)c(OC)c1)O2` > 100 µM

Give its TGI value. Item: NC1=C(O)/C(=N/NS(=O)(=O)c2ccccc2)C(c2cccc(Cl)c2)O1 (centres undefined) > 100 µM

* * *

Reported log10(TGI) values follow for various compounds
Test system: NCI-H522 lung
Assay: NCI tumour cell line growth inhibition, 48 h
Lab note - TGI converted to log10 from values in µM.

In the examples that follow, each entry is paired with its recorded log10(TGI).
| compound | log10(TGI) |
| --- | --- |
| CCN(CC)CCCNc1c2cc(OC)ccc2nc2cccc([N+](=O)[O-])c12 | -1.55 |
| O=CN/C=C\c1cc(O)ccc1O | 1.00 |
| COc1cc(Cl)c(C)cc1NC(=O)c1cc2ccccc2cc1O | 0.65 |
| O=C(CCCN1CCC(Nc2ccc(F)cc2)(c2nnnn2C2CCCCC2)CC1)c1ccc(F)cc1 | 1.47 |
| Nc1nc(=O)n(C2CC(O)C(CO)O2)c2nc(-c3ccc(-c4ccccc4)cc3)cnc12 (stereo not given) | 1.69 |
| O=C1/C=C/[C@@H](O)[C@@H]2C[C@@H](O)C[C@H]2/C=C/CCCCO1 | 0.75 |

Now for a further compound.
Which measured log10(TGI) belongs to `Nc1c(C(=O)Nc2cccc3ccccc23)sc2nc3c(cc12)CCCCCC3` , tested on NCI-H522 lung? 0.64

* * *

System: SK-MEL-5 melanoma
Assay: NCI tumour cell line growth inhibition, 48 h
This listing pairs compounds with measured TGI.

These recorded examples may help you get a feel for the data.
| compound | metric | result |
| --- | --- | --- |
| CC(=O)O[C@H]1CC[C@@]2(C)[C@@H](CC[C@@H]3[C@@H]2CC(=O)[C@@]2(C)[C@H]3C[C@@H]3CC(C)=CC(=O)[C@@H]32)C1 | TGI | > 100 µM |
| COC(=O)c1cc(OCc2cc(OCc3ccc(Br)cc3)cc(OCc3ccc(Br)cc3)c2)cc(OCc2cc(OCc3ccc(Br)cc3)cc(OCc3ccc(Br)cc3)c2)c1 | TGI | > 100 µM |
| O=C(Nc1ccc(-n2cc(-c3ccncc3)c(-c3ccc(Cl)c(O)c3)n2)cc1)c1ccc(Cl)c(C(F)(F)F)c1 | TGI | 1.64 µM |
| CCCCCCCCCCCCCCCc1nc(SCC(=O)O)n[nH]1 | TGI | > 100 µM |
| O=C(O)COc1cccc2ccccc(=O)c12 | TGI | > 100 µM |

Param readout= TGI; system= SK-MEL-5 melanoma; entry= `CCCCCC(=O)OC[n+]1ccc(-c2c(COC(=O)NC(C)C)c(COC(=O)NC(C)C)c3n2CCC3)cc1` ; returns value. > 100 µM

Lab note: need TGI with SK-MEL-5 melanoma for entry `C[C@H](N)C(=O)Nc1ccc(-c2nc3ccccc3s2)cc1Cl` , please look it up. 29.9 µM

* * *

Tested on: NCI/ADR-RES ovarian
Experiment: NCI tumour cell line growth inhibition, 48 h
// values below are reported GI50

| molecule | GI50 |
| --- | --- |
| C=C(C=O)[C@@H]1CC=C(C=O)CC1 | 3.89 µM |
| C=CCOc1ccc2c(c1)CC[C@@H]1[C@@H]2CC[C@]2(C)C(=O)/C(=N/O)C[C@@H]12 | 6.92 µM |
| COc1ccc(-n2cc(-c3ccc(F)cc3)[nH]c2=O)cc1OC | > 100 µM |
| Cc1cc(=O)[nH]c2c1C(=O)C(=O)C=C2 | 18.4 µM |
| O=C(/C=C/c1ccco1)c1cccc(Nc2nc(Nc3ccccc3)nc(Nc3ccccc3)n2)c1 | 36.3 µM |

Entry under review: `Nc1c(C(=O)Nc2cccc3ccccc23)sc2nc3c(cc12)CCCCCC3` . Reported GI50? 0.784 µM

Would you kindly share the measured GI50 for `CCc1cc(Cc2cc(CC)cc(C(C)(C)C)c2O)c(O)c(C(C)(C)C)c1` ? 3.94 µM

Which GI50 value is on record for COc1cc(/C=C2\CCCC3=C2N=C2SC=NN2C3c2cc(OC)c(OC)c(OC)c2)cc(OC)c1OC (stereo not drawn) ? 3.45 µM
